metric: melting point

> print(dat)
                                    molecule         metric  valuereported
 1  COc1ccc(-c2cnc3cc4cnn(C[C@@H]5COC(C)(C)O5)c4cc3n2)cc1F  melting point  145 to 151 °C
 2  O=C(NNS(=O)(=O)c1ccccc1)c1cc2cc(Cl)ccc2o1  melting point  181 to 183 °C
 3   COc1ccc(C(=O)c2c(N)sc3c2CCCC3)c2ccccc12  melting point  227 to 229 °C
 4                 CCOC(=O)c1cc(Cl)cc(N)c1Cl  melting point    63 to 65 °C
 5         O=C(O)c1ccc(NCCCOc2ccc(Cl)cc2)cc1  melting point  180 to 181 °C
 6          O=[N+]([O-])c1sccc1-c1ccc(Cl)cc1  melting point  108 to 110 °C
 7         O=C(O)c1cnc2ccc(Cl)cc2c1-c1ccccc1  melting point  269 to 270 °C
 8  CCOC(=O)CC(NC(=O)c1cccc(NC(=O)c2cnc(NC(=N)N)s2)c1)c1ccccc1 (racemic)  melting point         149 °C
 9           CCC1(COC(=O)c2cccc3ccccc23)COC1  melting point          62 °C
10  COc1ccc(OC)c(C(=O)c2cccc([N+](=O)[O-])c2)c1  melting point          98 °C
11         C=Cc1ccc2ccccc2c1-c1ccc(O)c(OC)c1  melting point    83 to 86 °C
12  COC(=O)C1=C(C)NC2=C(C(=O)OC2C)C1c1ccccc1Cl (configuration not stated)  melting point  228 to 233 °C
13  Nc1c(F)c(Oc2ccc(Cl)c(Cl)c2)nc(C(=O)O)c1Cl  melting point  156 to 160 °C
14           Cc1nnc2ccc(-c3cccc(NC=O)c3)nn12  melting point  265 to 268 °C
15          O=C1Cc2cccc(Oc3c(Cl)cccc3Cl)c2N1  melting point       > 230 °C
16      O=C(O)Cn1c(=O)c(=O)n(O)c2ccc(Cl)cc21  melting point  280 to 282 °C
17       COc1ccc(NC(=O)Cc2ccc(Cl)cc2)c(OC)c1  melting point  134 to 135 °C
18  O=C(c1cc(O)cc2cc(-c3ccc(O)cc3)oc12)C(F)(F)F  melting point  215 to 216 °C
19  CC(=O)C(=Cc1ccc(S(C)(=O)=O)c(Cl)c1)C(C)=O  melting point  140 to 142 °C
20  COc1ccc(C2CCN(C(=O)Nc3ccc4cc(CN5CCCC5)ccc4c3)CC2)cc1  melting point  194 to 196 °C
21  COc1cc2c(c3c1OC(C)(C)C3)C(c1cccc(NC(=O)c3cccnc3)c1)=NC(C)(C)C2  melting point  213 to 219 °C
22         CC(=O)N1CCc2ccc(C(=O)CCCCl)cc2CC1  melting point  103 to 106 °C
23  COCCOc1ccc(/C=C/C(=O)O)c(Oc2ncc(Cl)cc2Cl)c1  melting point  182 to 184 °C
24  CSc1ccc(-c2nc(SC)c(C#N)c(=O)n2-c2ccc(C(C)C)cc2)cc1  melting point  180 to 181 °C
25  COc1ccc(S(=O)(=O)Nc2cc(C)c(S(=O)(=O)C[N+](=O)[O-])c(C)c2)cc1  melting point  141 to 142 °C
26  C#CCN(Cc1ccc2nc(NC(=O)C(C)(C)C)[nH]c(=O)c2c1)c1ccc(S(=O)(=O)N(C)C)cc1  melting point  217 to 220 °C
27  Cc1nc(Nc2ccccc2)sc1C(=O)c1ccc(N)c([N+](=O)[O-])c1  melting point  235 to 239 °C
28  COc1c2c(c(OC)c(OC)c1OC)CC(CCCCCCCCN1C(=O)c3ccccc3C1=O)C2  melting point    64 to 65 °C
29  CCC1N=C(c2ccccc2Cl)c2cc(CC(=O)OC)sc2-n2c(C)nnc21 (configuration not stated)  melting point  134 to 137 °C
30      O=c1[nH]c(=O)n(Cc2ccccc2)cc1C(F)(F)F  melting point  194 to 195 °C
31                       CN(C)c1nc(O)cc(O)n1  melting point       > 300 °C
32  O=C(O)C(C1CC(=O)N(C(=O)OCC(Cl)(Cl)Cl)O1)N1C(=O)c2ccccc2C1=O (configuration not stated)  melting point  208 to 210 °C
33  CSCCCNC(=O)N(O)C[C@@H]1C[C@H]1c1ccccc1 (relative stereo)  melting point  103 to 104 °C
34             C#CCNc1nc2ccc(OC(F)(F)F)cc2s1  melting point  138 to 140 °C
35                     CNCc1ccc2cc(OC)ccc2c1  melting point   96 to 104 °C
36  CCOC(=O)[C@H](NS(=O)(=O)c1ccc(C)cc1)[C@@H]1CO[C@@H](c2ccccc2)C1  melting point    97 to 99 °C
37               CC(C)Oc1c(C(N)=O)oc2ccccc12  melting point    82 to 83 °C
38  COc1ccc(C(=O)N2c3ccc(OC)cc3CC2C(=O)O)cc1 (configuration not stated)  melting point  151 to 152 °C
39          COc1cc(CO)cc2c(Br)ccc(OC(C)C)c12  melting point  120 to 121 °C
40  CCCn1cc(Cc2ccc(C(=O)NS(=O)(=O)c3ccccc3C)cc2OC)c2cc(CCC(C)C(=O)N(C)C)ccc21 (configuration not stated)  melting point    90 to 93 °C
41  COc1ccc(OC)c(C2(Cl)C(=O)Nc3ccc(Cl)cc32)c1 (configuration not stated)  melting point         157 °C
42  Cc1cccc(C2COc3cc(O)c(O)cc3C2)c1 (configuration not stated)  melting point  146 to 148 °C

###

In this section we review reported melting point values for a set of molecules.
metric: melting point

> print(dat)
                                    molecule  valuereported
 1  Oc1c(C(O)(C(F)(F)F)C(F)(F)F)cc(Br)c2ccccc12  112 to 115 °C
 2  CCC1(C)OC(c2ccc(S(C)(=O)=O)cc2)=C(c2ccccc2)C1=O (stereo unspecified)  115 to 117 °C
 3  CN1CCC(=C2c3ccsc3C(O)Cn3ccnc32)CC1 (stereo unspecified)         230 °C
 4  O=C1Nc2ccc(C(F)(F)F)cc2C1(O)c1cc(Cl)ccc1O (stereo unspecified)  156 to 158 °C
 5           O=c1nc(-c2cccc(Br)c2)sc2ccccc12         162 °C
 6            COC(=O)c1ccc(OC)c(OC(C)(C)C)c1   98 to 100 °C
 7  CCCCCC(O)CCN1C(=O)NC(=O)C1CCCCCCC(=O)O (stereo unspecified)    63 to 65 °C
 8  OCCCN1CC=C(c2cn(-c3ccc(F)cc3)c3ccc(C(F)(F)F)cc23)CC1  173 to 175 °C
 9  Cn1c(C(F)(F)F)cc(=O)n(-c2cc(OCSc3ccc(Cl)cc3)c(Cl)cc2F)c1=O  141 to 142 °C
10           Cc1nn(-c2ccccn2)c2nc3ccccc3cc12  153 to 154 °C
11  CC1(C)CN(Cc2cc(F)ccc2F)c2cc(-c3ccc(C(=O)N4CCC[C@H]4CN4CCCC4)cc3)cnc2N1    74 to 77 °C
12  O=C(O)c1ccc2c(c1)CCC(CCN1CCC(c3ccccc3)CC1)C2=O (stereo unspecified)  118 to 120 °C
13  CCOC(=O)CCc1ccc(OCc2ccc(OCc3nc(-c4ccccc4)oc3C)cc2)cc1  105 to 106 °C
14  Cc1ccc(F)cc1C(=O)Nc1ccc(C(=O)N2Cc3ccccc3Oc3ncccc32)cn1  187 to 189 °C
15  COc1ccc(C2(O)C(c3ccccc3Cl)SC3=NCCCCN32)cc1OC (stereo unspecified)   98 to 100 °C
16  CNC(=O)c1ccccc1Nc1nc(Nc2ccc3c(c2)CCN(C[C@@H](O)C(F)(F)F)CC3)ncc1Cl  188 to 191 °C
17    CN(C)c1cc(C(=O)CS(C)(=O)=O)cc(N(C)C)c1  151 to 153 °C
18  COc1ccc(-c2[nH]nc3c2C(=O)c2c(NC(=O)CCNc4ccncc4)cccc2-3)cc1       > 300 °C
19  CCC1c2cccn2-c2ccc(F)cc2N1S(=O)(=O)c1ccc(O)cc1 (stereo unspecified)  150 to 152 °C
20  CC(C)(CCCCCCCCCCC(C)(C)CCC(=O)O)CCC(=O)O    71 to 72 °C
21      COC(=O)NN=C(C)c1nc(-c2ccccc2)[nH]c1C  201 to 202 °C
22                       CCC(=O)NCCOc1ccccc1  61.5 to 64 °C
23  C=CCOc1ncc(F)c(C2(C(=O)NN)C=CC=C(C)C2)n1 (stereo unspecified)  181 to 185 °C
24  COC(=O)CCOc1ccc(CNC(=O)[C@@H]2Cc3ccccc3N2S(=O)(=O)c2ccc(C(C)(C)C)cc2)cc1    50 to 52 °C
25  O=[N+]([O-])C=C1CN=C(c2ccccc2Cl)c2cc(Cl)ccc2N1  182 to 185 °C
26                         CSc1cc(CF)nc(N)n1    95 to 97 °C
27         O=C(O)c1csc2c(=O)cc(C(F)(F)F)oc12  249 to 251 °C
28  CCNCC1CCN(c2cc3c(cc2Cl)c(=O)c(C(=O)O)cn3C2CC2)C1 (stereo unspecified)       > 310 °C
29  CC1(C)OC(=O)Nc2ccc(-c3ccc(C#N)[nH]3)cc21  241 to 242 °C
30  CCS(=O)(=O)c1ccc(-c2cnn(-c3cccc(Cl)c3)c(=O)c2C2CCCCC2)cc1    85 to 90 °C
31  Cc1ccc2c(=O)nc(-c3cccc(CCC(=O)O)n3)sc2c1         222 °C
32                     CCOC(=O)c1cc(C#N)ccn1  170 to 172 °C
33     Cc1nnc(-c2ccc3occ(-c4ccncc4Cl)c3c2)o1  147 to 148 °C
34         Cc1nc2cccc(OCC(C)C)c2c(N)c1C(=O)O         204 °C
35  CC(=O)Oc1ccc2c(c1)COC(C(Cl)(Cl)Cl)N2 (stereo unspecified)  155 to 157 °C
36       CCCS(=O)(=O)c1c(S(N)(=O)=O)c(C)nn1C  127 to 129 °C
37  CC(C)(C)c1ccccc1N1CCN(C(=O)Cc2nnn[nH]2)CC1  236 to 237 °C
38  Cn1c2cc(Cl)ccc2c2c(C(=O)N3CCCC3)nc(-c3ccncc3)nc21  256 to 258 °C
39  Cc1nnc(NCCN2CCC(Nc3nc4ccccc4n3Cc3ccc(F)cc3)CC2)s1         191 °C
40  CCOC(=O)CCCCCc1c(O)c2cccnc2n(-c2ccccc2)c1=O  167 to 168 °C
41  NS(=O)(=O)c1ccc(-c2cccc(-c3nc(-c4ccc(Cl)cc4Cl)cc(C(F)(F)F)n3)c2)s1         238 °C

Source: a melting point compilation (Tetko et al.; mined from patent text by program, amines drawn as free bases though some values may be those of a salt)
